# Target Or System: Flpin-293-PDE4B2 cells (Homo sapiens, UniProt Q07343)
# Sequence (Q07343 1-564 isoform Q07343-2): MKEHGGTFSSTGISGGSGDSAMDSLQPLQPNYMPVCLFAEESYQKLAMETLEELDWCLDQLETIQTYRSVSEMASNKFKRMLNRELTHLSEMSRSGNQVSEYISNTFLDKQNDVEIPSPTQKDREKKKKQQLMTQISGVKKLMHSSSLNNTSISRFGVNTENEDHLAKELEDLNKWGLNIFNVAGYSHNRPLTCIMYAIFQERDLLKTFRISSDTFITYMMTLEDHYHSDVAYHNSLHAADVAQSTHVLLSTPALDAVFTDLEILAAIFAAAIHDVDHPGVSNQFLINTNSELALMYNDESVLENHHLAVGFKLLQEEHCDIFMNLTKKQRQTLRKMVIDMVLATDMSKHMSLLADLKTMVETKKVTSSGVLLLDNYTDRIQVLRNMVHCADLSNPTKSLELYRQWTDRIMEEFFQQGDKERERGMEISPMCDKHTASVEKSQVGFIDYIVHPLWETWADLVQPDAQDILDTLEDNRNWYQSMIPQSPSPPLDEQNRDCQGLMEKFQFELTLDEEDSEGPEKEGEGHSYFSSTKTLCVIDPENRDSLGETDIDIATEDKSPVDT
# Assay Procedure: cell-based
# Test Context: read-out: Cell Inhibition % @10 nM, 10 nM, Flpin-293-PDE4B2 cells
Overview of reported inhibition at 0.01 µM across a group of molecules:

Lab note: [O-][S+]1CCc2nc(N3CC[C@@H]4c5cccc(Cl)c5OC[C@H]4C3)nc(NC3(CO)CCC3)c21 (stereo partly shown) gave inhibition at 0.01 µM of 52.5%

Lab note: [O-][S+]1CCc2nc(N3CCc4ccsc4C3)nc(NC3(CO)CCC3)c21 (stereo not shown) gave inhibition at 0.01 µM of 18.1%

More entries:
So for [O-][S+]1CCc2nc(N3CCc4c(c(NCCO)nc5cc(Cl)ccc45)C3)nc(NC3(CO)CCC3)c21 (stereo not shown) , the logged inhibition at 0.01 µM turned out to be 38.9%

Reported inhibition at 0.01 µM of [O-][S+]1CCc2nc(N3CC[C@@H]4c5ccc(C(F)(F)F)cc5OC[C@H]4C3)nc(NC3(CO)CCC3)c21 (stereo partly shown) : 22.2%

inhibition at 0.01 µM reported for this molecule COc1ccc2c(c1)OC[C@H]1CN(c3nc4c(c(NC5(CO)CCC5)n3)[S+]([O-])CC4)CC[C@H]21 (stereo partly shown) : 76.1%

For [O-][S+]1CCc2nc(N3CCc4cc(N5CCCC5)ccc4C3)nc(NC3CCOCC3)c21 (stereo not shown) the molecule record lists inhibition at 0.01 µM as 93.5%

For this molecule ( CN1C[C@H]2C[C@@H]1CN2c1ccc2c(c1)CCN(c1nc3c(c(NC4(CO)CCC4)n1)[S+]([O-])CC3)C2 (stereo partly shown) ), measured inhibition at 0.01 µM is 46.8%

Recorded result, C[C@H]1c2ccc(N3CCCC3)cc2CCN1c1nc2c(c(NC3(CO)COC3)n1)[S+]([O-])CC2 (stereo partly shown) , inhibition at 0.01 µM: 74.4%

// recorded inhibition at 0.01 µM for Cn1nc(Cl)c2c3c(cnc21)CN(c1nc2c(c(NC4(CO)CCC4)n1)[S+]([O-])CC2)CC3 (stereo not shown) : 42.5%

For this molecule ( [O-][S+]1CCc2nc(N3CCc4cc(N5CCC6(CC5)COC6)ccc4C3)nc(NC3(CO)CCC3)c21 (stereo not shown) ), measured inhibition at 0.01 µM is 61.6%
